- target_or_system: Estrogen receptor beta (Homo sapiens) (UniProt Q92731)
- Sequence (Q92731 whole entry, looked up): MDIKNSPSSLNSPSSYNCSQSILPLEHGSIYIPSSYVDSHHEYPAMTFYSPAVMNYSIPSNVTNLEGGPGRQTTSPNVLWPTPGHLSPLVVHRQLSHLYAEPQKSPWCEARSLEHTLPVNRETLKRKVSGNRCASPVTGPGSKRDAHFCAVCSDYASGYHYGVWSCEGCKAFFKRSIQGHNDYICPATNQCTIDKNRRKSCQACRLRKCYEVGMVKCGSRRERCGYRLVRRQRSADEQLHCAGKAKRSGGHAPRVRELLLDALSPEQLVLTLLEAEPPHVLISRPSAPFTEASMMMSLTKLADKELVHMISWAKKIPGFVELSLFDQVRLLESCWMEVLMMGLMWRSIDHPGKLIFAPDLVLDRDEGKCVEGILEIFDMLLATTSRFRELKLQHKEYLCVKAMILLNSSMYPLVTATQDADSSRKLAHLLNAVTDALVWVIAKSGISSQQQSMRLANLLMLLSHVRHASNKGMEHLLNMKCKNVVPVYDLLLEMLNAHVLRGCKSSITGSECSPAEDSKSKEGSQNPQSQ
- assay_info: displacement of fluorescent estrogen from ERbeta – cell-based, Cos7 ERbeta-GFP, flow cytometry, primary screen (AID 1210);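 note: 0% = DMSO vehicle wells and 100% = complete loss of labeled estradiol signal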
- condition_summary: fluorescent estrogen binding, at 10 µM, hits give high values
Short version: inhibition at least 40% is true (1), less is false (0).

Examples from the recorded data:
[[record]]
molecule = "O=C(NC1CCN(C(=O)N2c3ccccc3Sc3ccccc32)CC1)c1ccccc1Cl"
class_label = "false (0)"

[[record]]
molecule = "Nc1ccc2nc(-c3cc(Cl)c(N)c(Cl)c3)[nH]c2c1"
class_label = "false (0)"

[[record]]
molecule = "Nc1ccc2nc(-c3cccs3)[nH]c2c1"
class_label = "true (1)"


[in] Check this molecule for inhibition at or above 40%: CCOC(=O)c1c(C)oc2c1c(C=NC1CCS(=O)(=O)C1)c(O)c1ccccc12 (stereo not given)
[out] false (0)

[in] Lookup COc1ccc(NC(=O)C(NC(=O)c2ccc(=O)[nH]c2)c2ccc(C)cc2)cc1 (stereo not given)
[out] true (1)

[in] Next molecule up: CCCCCc1nnc(NC(=O)Cc2cccs2)s1
[out] false (0)

[in] Also CC(C)(C)OC(=O)N1CCN(c2ccc(NC(=O)Cn3nnc(-c4ccccc4)n3)cc2)CC1 , if possible.
[out] true (1)

[in] Entry to check: Cc1ccc(NC(=O)CN2C(=O)S/C(=C/c3ccc(-c4cc(C(=O)O)ccc4C)o3)C2=O)cc1C
[out] false (0)

[in] Cool, now Fc1ccc2c(c1)[C@H]1OCC[C@H]1[C@@H](c1ccco1)N2
[out] false (0)

Entry source: PubChem BioAssay AID1210
